# measurement_description: chemical genetic growth profiling, strain panel (AID 1159580);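 further: tested at 20 µM; growth read once vehicle control cultures reached saturation at 30 °C; lower values mean less growth of the strain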
# particulars: S. cerevisiae deletion strains, growth OD, locus YMR129W
The whole screen tested about 5,500 compounds, of which about 2,000 (36%) were called active. Inconclusive results (about 18%) are left out. No stated cut-off is given here; in the data, active means normalized growth mostly below about 0.91 (no sharp cut-off); inconclusive means no clear call, values can overlap the other calls; inactive means mostly above about 0.92. The list shows a part of the results.
I would appreciate it if you answered using one of these outcomes: active, inactive

Call for entry "Cc1cc(O)c2c(c1)C(=O)c1cccc(O)c1C2=O" :
inactive

Call for entry "O=C1C=CC(=O)c2c(O)c(Cl)c(Cl)c(O)c21" :
active

Call for entry COc1cc2c(cc1OC)C(C)NCC2 (configuration not stated) :
inactive

Call for entry "CC(=O)OCC1=C(C(=O)O)N2C(=O)[C@@H](NC(=O)CSc3ccncc3)[C@H]2SC1" :
inactive
